The following molecules are listed with their measured activation values.
target: CCR3 (Homo sapiens, UniProt P51677); test: Figure S2a opioid peptide screen on chemokine receptors; parameters: dose or concentration left out as unconfirmed; conditions: read-out: CCR3 activity, ctrl+ = 100, Figure S2a; replicate 2
Sequence (P51677 whole entry): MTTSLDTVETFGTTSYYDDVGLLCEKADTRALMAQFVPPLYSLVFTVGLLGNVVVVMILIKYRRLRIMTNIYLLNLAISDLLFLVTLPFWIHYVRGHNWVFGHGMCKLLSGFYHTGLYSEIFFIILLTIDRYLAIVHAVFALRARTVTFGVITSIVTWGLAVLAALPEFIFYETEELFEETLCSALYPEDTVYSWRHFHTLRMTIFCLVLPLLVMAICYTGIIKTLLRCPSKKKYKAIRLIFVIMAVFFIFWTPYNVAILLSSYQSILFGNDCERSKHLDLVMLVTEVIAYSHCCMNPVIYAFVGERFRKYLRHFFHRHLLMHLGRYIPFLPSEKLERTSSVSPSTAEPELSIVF
State just the number; it will be interpreted in %.

Worked set:
- Molecule: "CC(C)C[C@H](NC(=O)[C@H](CCCCN)NC(=O)[C@H](CCCN=C(N)N)NC(=O)[C@H](C)NC(=O)[C@H](CO)NC(=O)[C@H](CCCCN)NC(=O)[C@H](CCCN=C(N)N)NC(=O)[C@H](C)NC(=O)CNC(=O)[C@@H](NC(=O)[C@H](Cc1ccccc1)NC(=O)CNC(=O)CNC(=O)[C@@H](N)Cc1ccccc1)[C@@H](C)O)C(=O)N[C@@H](C)C(=O)N[C@@H](CC(N)=O)C(=O)N[C@@H](CCC(N)=O)C(=O)O"
  activation / %: -14.3
- Molecule: "NC(=O)[C@H](Cc1ccccc1)NC(=O)[C@H](Cc1c[nH]c2ccccc12)NC(=O)[C@@H]1CCCN1C(=O)[C@@H](N)Cc1ccc(O)cc1 [Endomorphin-1]"
  activation / %: 4.97

The record that follows has no activation shown yet.
Q: Record C[C@H](NC(=O)CNC(=O)[C@@H](NC(=O)[C@H](Cc1ccccc1)NC(=O)CNC(=O)CNC(=O)[C@@H](N)Cc1ccccc1)[C@@H](C)O)C(=O)N[C@@H](CCCNC(=N)N)C(=O)N[C@@H](CCCCN)C(=O)N[C@@H](CO)C(=O)N[C@@H](C)C(=O)N[C@@H](CCCNC(=N)N)C(=O)N[C@@H](CCCCN)C(N)=O : what is its activation with CCR3 (Homo sapiens, UniProt P51677)?
Ans: 6.25

----------
Overview of recorded activation for various compounds
target: CXCR1 (Homo sapiens, UniProt P25024); construct: expressed in transfected cells; assay: Figure S2a opioid peptide screen on chemokine receptors; format: cell-based; set-up: dose or concentration left out as unconfirmed; conditions: replicate 2, read-out: CXCR1 activity, ctrl+ = 100
Sequence (P25024 whole entry): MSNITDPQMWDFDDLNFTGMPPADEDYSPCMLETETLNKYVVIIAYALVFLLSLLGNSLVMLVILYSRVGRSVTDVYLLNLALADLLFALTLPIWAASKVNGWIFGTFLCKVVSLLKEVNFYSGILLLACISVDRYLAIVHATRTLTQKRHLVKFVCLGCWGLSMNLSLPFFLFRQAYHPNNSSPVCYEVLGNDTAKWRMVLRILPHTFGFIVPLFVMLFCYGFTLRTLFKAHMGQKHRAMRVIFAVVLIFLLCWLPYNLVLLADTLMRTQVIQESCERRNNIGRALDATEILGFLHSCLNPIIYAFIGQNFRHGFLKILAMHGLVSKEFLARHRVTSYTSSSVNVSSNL
Give just the number in %; leave the unit off.

A selection of reference data follows.
- Structure Smiles String: "CC[C@H](C)[C@H](NC(=O)[C@H](CCCNC(=N)N)NC(=O)[C@H](CCCNC(=N)N)NC(=O)[C@H](CC(C)C)NC(=O)[C@H](Cc1ccccc1)NC(=O)CNC(=O)CNC(=O)[C@@H](N)Cc1ccc(O)cc1)C(=O)N[C@@H](CCCNC(=N)N)C(=O)N1CCC[C@H]1C(=O)N[C@@H](CCCCN)C(=O)N[C@@H](CC(C)C)C(=O)N[C@@H](CCCCN)C(=O)O"
  activation [%]: -1.21
- Structure Smiles String: "C[C@H](NC(=O)CNC(=O)[C@@H](NC(=O)[C@H](Cc1ccccc1)NC(=O)CNC(=O)CNC(=O)[C@@H](N)Cc1ccccc1)[C@@H](C)O)C(=O)N[C@@H](CCCNC(=N)N)C(=O)N[C@@H](CCCCN)C(=O)N[C@@H](CO)C(=O)N[C@@H](C)C(=O)N[C@@H](CCCNC(=N)N)C(=O)N[C@@H](CCCCN)C(N)=O"
  activation [%]: 1.23

Shift focus to the following entry.
Q: Which activation is listed for CC[C@H](C)[C@H](NC(=O)[C@H](CCCNC(=N)N)NC(=O)[C@H](CCCNC(=N)N)NC(=O)[C@H](CC(C)C)NC(=O)[C@H](Cc1ccccc1)NC(=O)CNC(=O)CNC(=O)[C@@H](N)Cc1ccc(O)cc1)C(=O)N[C@@H](CCCNC(=N)N)C(=O)N1CCC[C@H]1C(=O)N[C@@H](CCCCN)C(=O)N[C@@H](CC(C)C)C(=O)N[C@@H](CCCCN)C(=O)N[C@@H](Cc1c[nH]c2ccccc12)C(=O)N[C@@H](CC(=O)O)C(=O)N[C@@H](CC(N)=O)C(=O)N[C@@H](CCC(N)=O)C(=O)O ?
Ans: 0.211
